# credit: patent US20250250357A1

assayed target: monkey MSLN full-length protein expressed on HEK293T cells (HEK293T-monkey MSLN) (monkey)
assay notes: FACS on HEK293T-monkey MSLN cells
Kindly return satisfied if reported Maximum mean fluorescence intensity is no lower than 30000; return not satisfied if it is lower.

{"columns": ["binder", "label class"],
 "data": [
  ["S009-F8-9.16 (antibody, human IgG1, kappa, V domains shown) VH: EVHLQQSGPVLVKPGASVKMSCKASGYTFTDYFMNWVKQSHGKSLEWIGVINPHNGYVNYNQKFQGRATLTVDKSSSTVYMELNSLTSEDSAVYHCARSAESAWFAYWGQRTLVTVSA VL: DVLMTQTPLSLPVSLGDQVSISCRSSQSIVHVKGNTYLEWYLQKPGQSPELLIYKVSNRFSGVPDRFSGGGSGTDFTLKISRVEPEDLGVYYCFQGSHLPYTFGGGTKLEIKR", "not satisfied"],
  ["S009-F8-5.15 (antibody, human IgG1, kappa, V domains shown) VH: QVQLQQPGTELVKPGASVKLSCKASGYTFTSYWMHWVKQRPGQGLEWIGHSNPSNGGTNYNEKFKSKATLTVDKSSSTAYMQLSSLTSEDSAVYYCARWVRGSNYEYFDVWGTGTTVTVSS VL: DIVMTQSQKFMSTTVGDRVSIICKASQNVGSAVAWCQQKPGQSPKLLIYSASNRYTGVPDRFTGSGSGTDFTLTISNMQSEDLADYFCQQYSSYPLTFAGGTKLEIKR", "not satisfied"],
  ["S009-F8-15.19 (antibody, human IgG1, kappa, V domains shown) VH: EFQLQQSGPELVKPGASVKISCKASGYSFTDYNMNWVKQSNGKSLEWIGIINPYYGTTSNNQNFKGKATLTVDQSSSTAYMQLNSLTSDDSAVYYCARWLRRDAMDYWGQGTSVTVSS VL: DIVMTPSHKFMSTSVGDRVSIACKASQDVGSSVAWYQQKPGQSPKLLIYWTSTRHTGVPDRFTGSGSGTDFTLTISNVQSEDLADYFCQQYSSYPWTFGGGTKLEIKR", "not satisfied"],
  ["S009-F8-31.22 (antibody, human IgG1, kappa, V domains shown) VH: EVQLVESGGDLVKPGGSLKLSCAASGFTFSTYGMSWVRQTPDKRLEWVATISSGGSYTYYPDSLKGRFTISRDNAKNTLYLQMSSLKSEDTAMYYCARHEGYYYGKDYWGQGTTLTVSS VL: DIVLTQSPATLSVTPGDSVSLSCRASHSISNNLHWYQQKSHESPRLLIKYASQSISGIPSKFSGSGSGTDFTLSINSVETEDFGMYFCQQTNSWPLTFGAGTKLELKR", "not satisfied"],
  ["S009-F8-4.5 (antibody, human IgG1, kappa, V domains shown) VH: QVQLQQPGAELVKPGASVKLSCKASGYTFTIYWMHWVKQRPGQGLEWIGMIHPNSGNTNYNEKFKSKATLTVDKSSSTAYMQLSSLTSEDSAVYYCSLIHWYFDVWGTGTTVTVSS VL: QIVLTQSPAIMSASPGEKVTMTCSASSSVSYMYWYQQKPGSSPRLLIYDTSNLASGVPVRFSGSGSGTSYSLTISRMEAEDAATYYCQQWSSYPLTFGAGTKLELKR", "satisfied"],
  ["S009-F8-33.12 (antibody, human IgG1, kappa, V domains shown) VH: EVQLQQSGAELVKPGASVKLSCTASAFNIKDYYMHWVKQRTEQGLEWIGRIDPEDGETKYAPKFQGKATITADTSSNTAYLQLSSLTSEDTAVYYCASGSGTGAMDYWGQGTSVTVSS VL: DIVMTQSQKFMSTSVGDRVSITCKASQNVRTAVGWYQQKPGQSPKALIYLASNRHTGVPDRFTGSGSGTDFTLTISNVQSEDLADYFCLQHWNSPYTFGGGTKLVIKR", "satisfied"],
  ["S009-F8-8.22 (antibody, human IgG1, kappa, V domains shown) VH: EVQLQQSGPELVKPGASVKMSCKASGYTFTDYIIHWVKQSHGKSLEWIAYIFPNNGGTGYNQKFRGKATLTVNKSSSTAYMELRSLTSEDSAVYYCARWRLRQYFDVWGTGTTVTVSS VL: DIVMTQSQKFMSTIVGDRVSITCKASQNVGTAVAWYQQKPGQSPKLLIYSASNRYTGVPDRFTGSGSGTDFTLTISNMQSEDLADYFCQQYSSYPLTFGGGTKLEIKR", "satisfied"],
  ["S009-F8-12.13 (antibody, human IgG1, kappa, V domains shown) VH: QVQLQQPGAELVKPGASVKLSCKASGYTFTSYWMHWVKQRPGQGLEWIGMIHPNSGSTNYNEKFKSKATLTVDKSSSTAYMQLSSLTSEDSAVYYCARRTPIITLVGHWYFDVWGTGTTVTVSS VL: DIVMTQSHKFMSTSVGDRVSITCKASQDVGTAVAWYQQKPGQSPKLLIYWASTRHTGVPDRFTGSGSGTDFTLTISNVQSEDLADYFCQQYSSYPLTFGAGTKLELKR", "not satisfied"],
  ["S009-F8-29.1 (antibody, human IgG1, kappa, V domains shown) VH: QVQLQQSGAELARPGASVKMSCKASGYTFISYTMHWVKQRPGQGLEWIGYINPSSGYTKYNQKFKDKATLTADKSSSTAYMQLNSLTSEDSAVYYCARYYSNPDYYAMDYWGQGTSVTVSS VL: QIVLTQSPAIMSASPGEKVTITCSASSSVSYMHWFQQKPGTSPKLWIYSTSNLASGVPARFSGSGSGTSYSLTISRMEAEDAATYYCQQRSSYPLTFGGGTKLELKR", "not satisfied"],
  ["S009-F8-22.23 (antibody, human IgG1, kappa, V domains shown) VH: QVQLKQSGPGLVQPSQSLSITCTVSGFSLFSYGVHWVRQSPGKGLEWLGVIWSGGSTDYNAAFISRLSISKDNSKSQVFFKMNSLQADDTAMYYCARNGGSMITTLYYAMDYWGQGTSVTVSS VL: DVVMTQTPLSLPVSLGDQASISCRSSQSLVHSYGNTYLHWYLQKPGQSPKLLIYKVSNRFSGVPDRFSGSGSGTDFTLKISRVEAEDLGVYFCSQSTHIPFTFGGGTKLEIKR", "satisfied"],
  ["S009-F8-27.1 (antibody, human IgG1, kappa, V domains shown) VH: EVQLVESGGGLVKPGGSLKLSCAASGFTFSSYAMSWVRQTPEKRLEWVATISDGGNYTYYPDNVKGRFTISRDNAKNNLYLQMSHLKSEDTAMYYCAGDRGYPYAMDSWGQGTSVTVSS VL: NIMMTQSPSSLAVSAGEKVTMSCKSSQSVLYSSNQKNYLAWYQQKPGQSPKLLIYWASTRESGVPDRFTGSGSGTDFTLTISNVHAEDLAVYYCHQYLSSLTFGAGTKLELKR", "satisfied"]
]}
